Reference for the values: PubChem BioAssay

Experiment: inhibition of PAO1 biofilm formation – strain PAO1, LB-PBS medium, absorbance 600 nm, primary screen (AID 1176); further: test concentration not given here
Settings: P. aeruginosa PAO1 growth/biofilm, A600, 12 h; higher = more signal
# if value of z-score reaches 0.2, tag yes (1); if it stays below, tag no (0)

Worked examples follow.
molecule	discrete-label
COC(=O)[C@@]1(Cc2ccc(OC)cc2)[C@H]2c3cc(C(=O)N4CCCC4)n(Cc4ccc(Cl)c(C(F)(F)F)c4)c3C[C@H]2CN1C(=O)c1ccccc1	no (0)
COc1ccc([Si](C)(C)[C@@H]2[C@@H](CC(=O)N(CCO)Cc3ccccc3)O[C@]3(C(=O)N(Cc4ccc(N5C(=O)c6cccc7cccc5c67)cc4)c4ccccc43)[C@H]2C)cc1	yes (1)
CC(C)C(=C=CC[C@H](O)c1ccccc1OCCO)C[C@H](O)c1cc(Cl)cc(Cl)c1O	yes (1)
COC(=O)[C@@]1(Cc2ccccc2)[C@H]2c3cc(C(=O)N(C)C)n(CCSC(=N)N)c3C[C@H]2CN1C(=O)c1ccccc1	no (0)
CN(C)CCCC[C@@H]1NC(=O)[C@H]2C[C@@H](C(=O)O)[C@@H](c3ccc(O)cc3)N2C1=O	yes (1)

Q) Dear colleague, could you confirm whether `Cc1ccc(N2C(=O)c3ccccc3[C@](C)(C(=O)NCCCN(C)C)[C@@H]2c2ccc(CO)cc2)nc1` has z-score at or above 0.2?
A) no (0)

Q) Does the molecule `COC(=O)C(CC#Cc1ccc2c(c1)[C@]1(C(=O)N2)[C@H](c2ccccc2OCCO)N2[C@H](c3ccccc3)[C@H](c3ccccc3)OC(=O)[C@H]2[C@@H]1C(=O)N1CCc2cc(OC)c(OC)cc2C1)C(=O)OC` have recorded z-score that is 0.2 or more?
A) yes (1)

Q) Could you verify whether the entry CC(C)(C)N1CC=CC23O[C@@H]4C=CCCOC(=O)C4[C@H]2C(=O)N(CCCCCCO)[C@@H]3C1=O (stereo partly drawn) shows z-score of no less than 0.2?
A) no (0)

Q) Could you tell me if the measured z-score of `C=C(COC)C(=O)CC[C@H](OC(=O)c1cccnc1)c1ccc(OCCO)cc1` reaches 0.2 or more?
A) no (0)

Q) Identify whether the reported z-score of the following molecule is 0.2 or greater: `C=C1C(=O)C=C2CN(C(=O)c3ccccc3)[C@@](Cc3ccc(OC)cc3)(C(=O)OC)[C@@H]12`
A) yes (1)

Q) Does `COCCCNC(=O)[C@@]1(CCS(=O)(=O)c2ccccc2)COC(c2ccc(OCCCO)cc2)=N1` have a reported z-score of at least 0.2?
A) no (0)

Q) Determine whether measured z-score meets or exceeds 0.2 for `CC(C)N1C(=O)c2ccccc2[C@](C)(C(=O)NCC(F)(F)F)[C@@H]1c1ccc(CO)cc1`
A) no (0)

====

Target: Dihydroorotate dehydrogenase (quinone), mitochondrial (Plasmodium falciparum (isolate 3D7)) (UniProt Q08210)
Sequence (Q08210 whole entry, looked up): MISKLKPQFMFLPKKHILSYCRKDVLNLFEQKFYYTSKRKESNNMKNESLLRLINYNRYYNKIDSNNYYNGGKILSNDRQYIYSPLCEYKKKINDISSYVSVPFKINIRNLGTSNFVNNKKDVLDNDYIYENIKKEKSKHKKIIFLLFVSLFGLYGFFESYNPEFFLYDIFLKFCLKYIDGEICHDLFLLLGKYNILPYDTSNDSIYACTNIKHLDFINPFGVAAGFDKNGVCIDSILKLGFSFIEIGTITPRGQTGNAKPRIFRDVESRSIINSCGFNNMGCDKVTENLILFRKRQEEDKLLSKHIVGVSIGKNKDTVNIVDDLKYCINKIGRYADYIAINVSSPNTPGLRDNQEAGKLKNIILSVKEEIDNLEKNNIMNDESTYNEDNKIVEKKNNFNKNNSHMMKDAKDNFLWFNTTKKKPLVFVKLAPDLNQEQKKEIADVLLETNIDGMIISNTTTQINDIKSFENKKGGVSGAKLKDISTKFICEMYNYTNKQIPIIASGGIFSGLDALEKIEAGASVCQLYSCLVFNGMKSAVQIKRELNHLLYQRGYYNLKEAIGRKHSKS
Assay: inhibition of P. falciparum DHODH – biochemical, C-terminal His tag, absorbance 600 nm, primary screen (AID 1175);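 further: recombinant parasite enzyme with a five histidine tag at its C terminus; test concentration not given here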
Details: PfDHODH enzyme, DCIP absorbance 600 nm; higher = more signal, called active from +8 up or from −8 down
Consider the reported composite z-score of an entry and match it to a band in 1 (below -0.5), 2 (-0.5 to below 0.5), 3 (0.5 or more)

Take a look at these entries with their results.
molecule	discrete-label
C=CCC(OC(C)=O)[C@@H]1[C@@H](N(Cc2cccc3ccccc23)C(=O)c2ccc(-c3ccccc3)cc2)c2cc(OCCCO)ccc2N1C(=O)Cc1ccc2ccccc2c1 (stereo not given in full)	2
O=C(O)[C@H](Cc1ccccc1)n1cc(C2(O)CCCCC2)nn1	1
COC(=O)[C@@]1(Cc2ccccc2)N=C(c2ccc(OCCCO)cc2)O[C@H]1c1ccccc1CN=[N+]=[N-]	2
O=C1C[C@@](C(=O)NCc2ccccc2)(c2ccc([N+](=O)[O-])cc2)[C@@H](c2ccc(CO)cc2)N1C1CCCCC1	1
CCCC=C(CCC)[C@@H](NC(=O)c1ccc(C(F)(F)F)cc1)c1ccc(C(F)(F)F)cc1	2

Now for a further molecule.
Q) Entry `COCCOC(=O)N1C(=O)[C@@]2(c3cc(C#CCCO)ccc31)[C@H](C(N)=O)[C@H]1C(=O)O[C@H](c3ccccc3)[C@H](c3ccccc3)N1[C@@H]2c1ccccc1OCCO` belongs to which category?
A) 3
